target: VI1358 pseudovirus envelope (HIV-1)
test: cell-based or functional assay
Exam item: assign True to entries whose EC50, single-cycle HIV-1 pseudovirus infection of GHOST cells (luciferase) is below 40 nM and False to entries at or above 40 nM. Note that a value of exactly 40 nM receives False.

Would you kindly verify if EC50, single-cycle HIV-1 pseudovirus infection of GHOST cells (luciferase) of XNLHFCQLRCKSLGLLGRCAXTXCACV (not fully specified; N-terminal thiopropionic acid (TPA) at position 1; (D)Pro at 21; biphenylalanine (Bip) at 23; C-terminal amide) [CD4M47] is strictly less than 40 nM?
False

Would you kindly verify if EC50, single-cycle HIV-1 pseudovirus infection of GHOST cells (luciferase) of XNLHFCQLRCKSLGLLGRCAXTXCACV (not fully specified; N-terminal thiopropionic acid (TPA) at position 1; (D)Pro at 21; para-cyclo-pentylethoxyphenylalanine (U2) at 23; C-terminal amide) [CD4M48_U2] is strictly less than 40 nM?
False

Would you kindly verify if EC50, single-cycle HIV-1 pseudovirus infection of GHOST cells (luciferase) of XNLHFCQLRCKSLGLLGRCAXTFCACV (not fully specified; N-terminal thiopropionic acid (TPA) at position 1; (D)Pro at 21; C-terminal amide, optimized mini-protein, Phe at 23; unlabelled monomer; also called B4T) [CD4M48] is strictly less than 40 nM?
False

Would you kindly verify if EC50, single-cycle HIV-1 pseudovirus infection of GHOST cells (luciferase) of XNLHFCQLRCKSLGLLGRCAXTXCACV (not fully specified; N-terminal thiopropionic acid (TPA) at position 1; (D)Pro at 21; para-cyclo-hexylmethoxyphenylalanine (U1) at 23; C-terminal amide) [CD4M48_U1] is strictly less than 40 nM?
True

Would you kindly verify if EC50, single-cycle HIV-1 pseudovirus infection of GHOST cells (luciferase) of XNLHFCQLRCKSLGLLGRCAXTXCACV (not fully specified; N-terminal thiopropionic acid (TPA) at position 1; (D)Pro at 21; Phe(para-[phenyl-ethoxy]) (U3) at 23; C-terminal amide) [CD4M48_U3] is strictly less than 40 nM?
False
